molecular target: Mitogen-activated protein kinase 3 (Homo sapiens); test: Inhibition of ERK1 (unknown origin) using […] as substrate after 40 mins by ADP-Glo luminescence assay
Sequence (P27361 whole entry): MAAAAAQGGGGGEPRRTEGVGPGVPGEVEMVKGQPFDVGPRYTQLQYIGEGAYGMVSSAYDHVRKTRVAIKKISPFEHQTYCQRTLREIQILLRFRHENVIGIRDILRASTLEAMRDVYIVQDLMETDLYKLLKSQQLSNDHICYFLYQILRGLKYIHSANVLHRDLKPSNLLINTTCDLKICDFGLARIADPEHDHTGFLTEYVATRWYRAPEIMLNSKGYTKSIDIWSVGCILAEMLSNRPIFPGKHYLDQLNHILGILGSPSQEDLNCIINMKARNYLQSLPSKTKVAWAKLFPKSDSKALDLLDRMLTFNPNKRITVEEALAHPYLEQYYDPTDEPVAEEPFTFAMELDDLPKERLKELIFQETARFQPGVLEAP
pIC50: −log10 of the molar value.
readoutType: pIC50

molecule: O=C1c2cc(-c3ccnc(NC4CCOCC4)n3)ccc2CN1Cc1cccc(Cl)c1
pIC50: 8.48

I = Cn1nccc1Nc1nccc(-c2ccc3c(c2)C(=O)N(C(CO)c2cccc(Cl)c2)C3)n1 (stereo not given)
II = O=C1c2cc(-c3ccnc(NC4CCOCC4)n3)ccc2CN1C(CO)c1cccc(Cl)c1 (stereo not given)
III = Cn1cc(Nc2nccc(-c3ccc4c(c3)C(=O)N(Cc3cccc(Cl)c3)C4)n2)cn1
Place the items in sequence of falling pIC50. Sort and list the labels as requested.
II, I, III
(II: 8.82, I: 8.44, III: 7.68)

====

system: HCT-116; assay: Antiproliferative activity against human HCT116 cells after 72 hrs by MTT assay; assay type: functional, cell-based; conditions: HCT-116, 72 h
pIC50: −log10 of the molar value.
readoutType: pIC50

Example results:
compound: Cn1cc(Nc2nccc(-c3ccc4c(c3)C(=O)N(C(CO)c3cccc(Cl)c3)C4)n2)cn1 (stereo not given)
pIC50: 6.70
--
compound: O=C1c2cc(-c3ccnc(NC4CCOCC4)n3)ccc2CN1Cc1cccc(Cl)c1
pIC50: 6.82
--
compound: Cn1cc(Nc2nccc(-c3ccc4c(c3)C(=O)N(Cc3cccc(Cl)c3)C4)n2)cn1
pIC50: 6.83

I = O=C1c2cc(-c3ccnc(NC4CCOCC4)n3)ccc2CN1C(CO)c1cccc(Cl)c1 (stereo not given)
II = Cn1nccc1Nc1nccc(-c2ccc3c(c2)C(=O)N(C(CO)c2cccc(Cl)c2)C3)n1 (stereo not given)
Thinking about recorded pIC50 values, which is higher, I or II ? Kindly give the label for the entry you pick.
I
(I: 6.81, II: 6.60)

====

assay: Cmax in Sprague-Dawley rat at 50 mg/kg, po by LC/MS/MS analysis; format: ADME, organism-based; parameters: dose 50 mg/kg, route oral; details: in vivo
readoutType: Cmax (ng/mL)

P = Cl.O=C1c2cc(-c3ccnc(NC4CCOCC4)n3)ccc2CN1C(CO)c1cccc(Cl)c1 (configuration not stated)
Q = Cl.O=C1c2cc(-c3ccnc(NC4CCOCC4)n3)ccc2CN1Cc1cccc(Cl)c1
Compare Cmax: is it lower for P or for Q ? Kindly give the label for the entry you pick.
Q

====

tested on: WM 266-4; assay: Antiproliferative activity against human WM266.4 cells after 72 hrs by MTT assay; type: functional, cell-based; conditions: WM 266-4, 72 h
readoutType: pIC50
Recall that pIC50 is obtained by taking minus log10 of the concentration measured in molar.

compound: Cn1nccc1Nc1nccc(-c2ccc3c(c2)C(=O)N(C(CO)c2cccc(Cl)c2)C3)n1 (stereo not given)
pIC50: 6.66
--
compound: Cn1cc(Nc2nccc(-c3ccc4c(c3)C(=O)N(Cc3cccc(Cl)c3)C4)n2)cn1
pIC50: 6.76
--
compound: O=C1c2cc(-c3ccnc(NC4CCOCC4)n3)ccc2CN1Cc1cccc(Cl)c1
pIC50: 6.66

Entry Cn1cc(Nc2nccc(-c3ccc4c(c3)C(=O)N(C(CO)c3cccc(Cl)c3)C4)n2)cn1 (stereo not given) : reported pIC50 = ?
6.68

Then what about the compound O=C1c2cc(-c3ccnc(NC4CCOCC4)n3)ccc2CN1C(CO)c1cccc(Cl)c1 (stereo not given) ?
6.59

====

target: Mitogen-activated protein kinase 1 (Homo sapiens, UniProt P28482); experiment: Inhibition of ERK2 (unknown origin) using […] as substrate after 40 mins by ADP-Glo luminescence assay
Sequence (P28482 whole entry): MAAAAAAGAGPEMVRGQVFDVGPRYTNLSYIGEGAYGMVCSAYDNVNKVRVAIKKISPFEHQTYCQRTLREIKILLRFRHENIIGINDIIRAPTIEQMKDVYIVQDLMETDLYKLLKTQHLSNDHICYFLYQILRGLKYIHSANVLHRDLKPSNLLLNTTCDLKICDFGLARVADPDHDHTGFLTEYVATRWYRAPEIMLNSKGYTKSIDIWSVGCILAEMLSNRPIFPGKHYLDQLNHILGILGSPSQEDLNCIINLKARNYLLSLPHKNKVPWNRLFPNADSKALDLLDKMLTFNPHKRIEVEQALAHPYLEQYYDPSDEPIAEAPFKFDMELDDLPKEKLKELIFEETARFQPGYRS
readoutType: IC50 (nM)

compound: O=C1c2cc(-c3ccnc(NC4CCOCC4)n3)ccc2CN1Cc1cccc(Cl)c1
readoutType: IC50
measurementUnits: nM
measurement: 1.6

compound: O=C1c2cc(-c3ccnc(NC4CCOCC4)n3)ccc2CN1C(CO)c1ccc(Cl)cc1 (stereo unspecified)
readoutType: IC50
measurementUnits: nM
measurement: 30.4

P = Cn1nccc1Nc1nccc(-c2ccc3c(c2)C(=O)N(C(CO)c2cccc(Cl)c2)C3)n1 (stereo unspecified)
Q = O=C1c2cc(-c3ccnc(NC4CCOCC4)n3)ccc2CN1[C@H](CO)c1cccc(Cl)c1
Thinking about recorded IC50 values, which is higher, P or Q ? Kindly give the label for the entry you pick.
P
(P: 1.9 nM, Q: 0.8 nM)

====

test: MRT (0 to t) in Sprague-Dawley rat at 50 mg/kg, po by LC/MS/MS analysis; format: ADME, organism-based; conditions: in vivo
readoutType: MRT last (h)

a = Cl.O=C1c2cc(-c3ccnc(NC4CCOCC4)n3)ccc2CN1C(CO)c1cccc(Cl)c1 (configuration not stated)
b = Cl.O=C1c2cc(-c3ccnc(NC4CCOCC4)n3)ccc2CN1Cc1cccc(Cl)c1
Compare MRT last: is it lower for a or for b ? Kindly give the label for the entry you pick.
b
(b: 1.2 h, a: 3.4 h)

====

assay: Oral bioavailability in Sprague-Dawley rat at 50 mg/kg by LC/MS/MS analysis; assay type: ADME, organism-based; conditions: in vivo
readoutType: bioavailability (%)

P = Cl.O=C1c2cc(-c3ccnc(NC4CCOCC4)n3)ccc2CN1C(CO)c1cccc(Cl)c1 (configuration not stated)
Q = Cl.O=C1c2cc(-c3ccnc(NC4CCOCC4)n3)ccc2CN1Cc1cccc(Cl)c1
Compare bioavailability: is it lower for P or for Q ? Kindly give the label for the entry you pick.
Q
(Q: 6.9%, P: 22.5%)

====

molecular target: Mitogen-activated protein kinase 1 (Homo sapiens, UniProt P28482); assay: Inhibition of ERK2 (unknown origin) using […] as substrate after 40 mins by ADP-Glo luminescence assay
readoutType: IC50 (nM)

Example results:
compound: O=C1c2cc(-c3ccnc(Nc4ncco4)n3)ccc2CN1C(CO)c1cccc(Cl)c1 (centres undefined)
measurementUnits: nM
IC50: 93.3
//
compound: Cn1cc(Nc2nccc(-c3ccc4c(c3)C(=O)N(Cc3cccc(Cl)c3)C4)n2)cn1
measurementUnits: nM
IC50: 3.6

P = O=C1c2cc(-c3ccnc(NC4CCOCC4)n3)ccc2CN1Cc1ccc(Cl)c(F)c1
Q = O=C1c2cc(-c3ccnc(NCCCO)n3)ccc2CN1C(CO)c1cccc(Cl)c1 (centres undefined)
R = Cn1nccc1Nc1nccc(-c2ccc3c(c2)C(=O)N(Cc2cccc(Cl)c2)C3)n1
S = O=C1c2cc(-c3ccnc(NC4CCOCC4)n3)ccc2CN1[C@@H](CO)c1cccc(Cl)c1
T = Cn1cc(Nc2nccc(-c3ccc4c(c3)C(=O)N([C@@H](CO)c3cccc(Cl)c3)C4)n2)cn1
Write the entries in order, lowest recorded IC50 first. Sort and list the labels as requested.
R, P, Q, S, T
(R: 3.5 nM, P: 17.8 nM, Q: 38.4 nM, S: 201 nM, T: 633 nM)

====

biological target: Mitogen-activated protein kinase 1 (Homo sapiens, UniProt P28482); experiment: Inhibition of ERK2 (unknown origin) using […] as substrate after 40 mins by ADP-Glo luminescence assay
pIC50: −log10 of the molar value.
readoutType: pIC50

compound: O=C1c2cc(-c3ccnc(Nc4nccs4)n3)ccc2CN1C(CO)c1cccc(Cl)c1 (centres undefined)
testSystem: Mitogen-activated protein kinase 1 (Homo sapiens, UniProt P28482)
pIC50: 7.65

compound: O=C1c2cc(-c3ccnc(NC4CCCCC4)n3)ccc2CN1C(CO)c1cccc(Cl)c1 (centres undefined)
testSystem: Mitogen-activated protein kinase 1 (Homo sapiens, UniProt P28482)
pIC50: 8.14

compound: Cn1cc(Nc2nccc(-c3ccc4c(c3)C(=O)N(C(CO)c3cccc(Cl)c3)C4)n2)cn1 (centres undefined)
testSystem: Mitogen-activated protein kinase 1 (Homo sapiens, UniProt P28482)
pIC50: 8.92

compound: O=C1c2cc(-c3ccnc(Nc4ccncc4)n3)ccc2CN1Cc1cccc(Cl)c1
testSystem: Mitogen-activated protein kinase 1 (Homo sapiens, UniProt P28482)
pIC50: 7.44

compound: Cn1ccc(Nc2nccc(-c3ccc4c(c3)C(=O)N(C(CO)c3cccc(Cl)c3)C4)n2)n1 (centres undefined)
testSystem: Mitogen-activated protein kinase 1 (Homo sapiens, UniProt P28482)
pIC50: 7.59

compound: O=C1c2cc(-c3ccnc(NC4CCOCC4)n3)ccc2CN1Cc1ccc(Cl)cc1
testSystem: Mitogen-activated protein kinase 1 (Homo sapiens, UniProt P28482)
pIC50: 7.45

compound: O=C1c2cc(-c3ccnc(NCCO)n3)ccc2CN1C(CO)c1cccc(Cl)c1 (centres undefined)
testSystem: Mitogen-activated protein kinase 1 (Homo sapiens, UniProt P28482)
pIC50: 7.75

P = O=C1c2cc(-c3ccnc(NC4CCOCC4)n3)ccc2CN1C(CO)c1cccc(Cl)c1 (centres undefined)
Q = O=C1c2cc(-c3ccnc(NC4CCOCC4)n3)ccc2CN1Cc1ccc(F)c(Cl)c1
Thinking about recorded pIC50 values, which is higher, P or Q ? Kindly give the label for the entry you pick.
P
(P: 9.15, Q: 8.54)
